- System: NCI-H292 lung cancer cells
- test-summary: FDA drug screening, complete media vs cholesterol-free media with simvastatin (TABLE 2)
- Format: cell-based, human
Structures can show the parent of a compound that is named as a salt.
measured-metric: Difference
Simply state the number, no unit and no words.

Can you look up the measured Difference of `CC1(C)[C@H](C(=O)O)N2C(=O)C[C@H]2S1(=O)=O` for me?
0.18

Next compound up: CCN1CCCC(OC(=O)C(c2ccccc2)c2ccccc2)C1 (centres unmarked) [Piperidolate]
0.59

Next compound up: CNCC[C@H](Oc1cccc2ccccc12)c1cccs1 [Duloxetine (hydrochloride)]
0.05

Next compound up: `O=C(O)CCCC[C@@H]1SC[C@@H]2NC(=O)N[C@@H]21`
−0.08

Next compound up: C[C@]12C=CC(=O)N[C@@H]1CC[C@@H]1[C@@H]2CC[C@]2(C)[C@@H](C(=O)Nc3cc(C(F)(F)F)ccc3C(F)(F)F)CC[C@@H]12 [Dutasteride]
−0.43

Next compound up: CN(C)C(=O)Oc1cccc([N+](C)(C)C)c1.[Br-] [Neostigmine (Bromide)]
0.15

Next compound up: O=C(OCC(O)CO)c1ccccc1Nc1ccnc2cc(Cl)ccc12 (centres unmarked) [Glafenine (hydrochloride)]
0.03

Next compound up: CN1[C@@H]2CC[C@H]1C[C@@H](OC(=O)C(CO)c1ccccc1)C2 (some centres unmarked) [Atropine (sulfate monohydrate)]
0.05

Next compound up: N#Cc1ccc(C2CCCc3cncn32)cc1 (centres unmarked) [Fadrozole hydrochloride]
−0.04

Next compound up: CC(C)Cn1cnc2c(N)nc3ccccc3c21 [Imiquimod (hydrochloride)]
−0.16

Next compound up: `OCCOc1ccc(/C(=C(/CCCl)c2ccccc2)c2ccccc2)cc1`
−0.69

Recorded values, source patent US20250144067A1.
